- EXPERIMENTAL PROTOCOL: Inhibition of Mycobacterium abscessus DNA gyrase using pBR322 DNA as substrate […] by fluorescence based microplate reader assay
- Parameters: species or system Mycobacteroides abscessus
pIC50: −log10 of the molar value.
OBSERVED PROPERTY: pIC50

MOL SMILES | OBSERVED PROPERTY | RESULT NUMBER
COc1ccc2nccc(NC(=O)C3CCN(CCc4ccc(C(F)(F)F)cc4)CC3)c2c1 | pIC50 | 5.22
COc1ccc2nccc(NC(=O)[C@H]3CC[C@H](NCc4ccc(C(F)(F)F)cc4)CC3)c2n1 | pIC50 | 5.82
COc1ccc2nccc(NC(=O)CC3CCN(Cc4ccc(C(F)(F)F)cc4)CC3)c2n1 | pIC50 | 4.40
COc1ccc2nccc(NC(=O)C3CCN(CCc4ccc(C(F)(F)F)cc4)CC3)c2n1 | pIC50 | 5.82
COc1ccc2nccc(NC(=O)C3CCN(CCc4ccc(Cl)cc4)CC3)c2n1 | pIC50 | 5.52
O=C1COc2ccc(CNC3CCN(CCn4c(=O)ccc5ccc(Oc6ccccn6)nc54)CC3)nc2N1 | pIC50 | 6.96
O=C(Nc1cccc2ccc(Cl)nc12)C1CCN(CCc2ccc(C(F)(F)F)cc2)CC1 | pIC50 | 5.52
COc1ccc2nccc(NC(=O)C3(C)CCN(CCc4ccc(C(F)(F)F)cc4)CC3)c2n1 | pIC50 | 5.22
COc1ccc2cccc(NC(=O)C3CCN(CCc4ccc(C(F)(F)F)cc4)CC3)c2n1 | pIC50 | 5.52
O=c1ccc2ncc(=O)n3c2n1C[C@H]3CN1CCC(NCc2cc3c(cn2)OCCC3)CC1 | pIC50 | 5.70
